The molecules below have reported IC50 for Epidermal growth factor receptor (Homo sapiens, UniProt P00533, L858R/T790M).
assay_metric: IC50 (nM)

Example entries begin here.
molecule	measurement_target	units_of_measure	IC50
COc1ccc(NC(=O)/C=C/CN(C)C)cc1Nc1ncc([S+](C)[O-])c(-c2cnn3ccccc23)n1 (centres undefined)	Epidermal growth factor receptor (Homo sapiens, UniProt P00533, L858R/T790M)	nM	15200
C=CC(=O)Nc1ccc(OC)c(Nc2ncc(Cl)c(-c3c[nH]c4ccccc34)n2)c1	Epidermal growth factor receptor (Homo sapiens, UniProt P00533, L858R/T790M)	nM	22
COc1ccc(NC(=O)CCCN(C)C)cc1Nc1ncc(Cl)c(-c2cnn3ccccc23)n1	Epidermal growth factor receptor (Homo sapiens, UniProt P00533, L858R/T790M)	nM	2300
COc1ccc(NC(=O)/C=C/CN(C)C)cc1Nc1nccc(-c2cnn3ccccc23)n1	Epidermal growth factor receptor (Homo sapiens, UniProt P00533, L858R/T790M)	nM	250

(I) C=CC(=O)Nc1ccc(OC)c(Nc2ncc(Cl)c(-c3cnn4ccccc34)n2)c1
(II) C=CC(=O)N1CCc2cc(OC)c(Nc3ncc(Cl)c(-c4c[nH]c5ccccc45)n3)cc21
(III) C=CC(=O)Nc1cccc(Nc2ncc(Cl)c(-c3c[nH]c4ccccc34)n2)c1
(IV) COc1cc(N2CCN(C(C)=O)CC2)ccc1Nc1ncc(Cl)c(-c2c[nH]c3ccccc23)n1
(V) COc1ccc(NC(=O)/C=C/CN(C)C)cc1Nc1ncc(Cl)c(-c2c[nH]c3ccccc23)n1
Prompt: Rank items: key IC50, increasing. # format: label list in the order the request specifies
Response: I, V, III, IV, II
(I: 33 nM, V: 53 nM, III: 81 nM, IV: 770 nM, II: 2100 nM)
